studySystem: ovine COX-1 (Ovis aries, UniProt P05979)
Construct: purchased Cayman Chemicals Inc. 560131
Sequence (P05979 25-600): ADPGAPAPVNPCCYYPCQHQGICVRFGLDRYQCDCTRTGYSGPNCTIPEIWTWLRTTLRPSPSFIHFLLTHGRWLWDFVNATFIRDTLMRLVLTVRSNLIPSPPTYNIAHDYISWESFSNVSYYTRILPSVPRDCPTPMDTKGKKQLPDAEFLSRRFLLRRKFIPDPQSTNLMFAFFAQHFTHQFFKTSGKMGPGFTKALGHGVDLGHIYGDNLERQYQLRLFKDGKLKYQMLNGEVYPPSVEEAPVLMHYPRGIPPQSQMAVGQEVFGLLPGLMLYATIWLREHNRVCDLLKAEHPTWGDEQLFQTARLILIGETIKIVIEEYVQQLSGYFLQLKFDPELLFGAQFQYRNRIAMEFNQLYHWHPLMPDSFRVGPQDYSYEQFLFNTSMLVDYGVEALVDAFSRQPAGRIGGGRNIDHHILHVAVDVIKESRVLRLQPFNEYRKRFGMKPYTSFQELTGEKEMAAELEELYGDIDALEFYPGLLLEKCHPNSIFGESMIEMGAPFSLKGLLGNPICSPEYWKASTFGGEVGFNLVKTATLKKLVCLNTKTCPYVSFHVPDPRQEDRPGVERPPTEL
assayOverview: In vitro COX-1 enzymatic assay (Cayman kit 560131)
Assay type: biochemical
testParameters: Mean ± SEM of triplicate determinations
measurementLabel: IC50 (µM)
Write the number in µM without appending the unit.

Data request: For CCCCNC(=O)c1cc(/N=N/c2ccc(S(=O)(=O)Nc3nccc(C)n3)cc2)ccc1O [Compound 5d] , what is its reported IC50?
Data returned: 10.6

Data request: Fill blank: measured IC50 of the molecule O=C(c1cc(N=Nc2ccc(S(=O)(=O)Nc3nccs3)cc2)ccc1O)N1CCOCC1 [Compound 5m] is ____.
Data returned: 9.9

Data request: Suppose we examine the molecule NS(=O)(=O)c1ccc(/N=N/c2ccc(O)c(C(=O)NCc3ccccc3)c2)cc1 [Compound 5e] ; what IC50 value has been reported?
Data returned: 8.3

Data request: Quick check: IC50 of O=C(c1cc(/N=N/c2ccc(S(=O)(=O)Nc3ncccn3)cc2)ccc1O)N1CCCCC1 [Compound 5j] ?
Data returned: 12.2

Data request: Quick check: IC50 of CCCCNC(=O)c1cc(/N=N/c2ccc(S(N)(=O)=O)cc2)ccc1O [Compound 5a] ?
Data returned: 9.6

Data request: Item O=C(NCc1ccccc1)c1cc(/N=N/c2ccc(S(=O)(=O)Nc3nccs3)cc2)ccc1O [Compound 5f] has what recorded IC50?
Data returned: 9.7

Data request: Which IC50 is listed for NS(=O)(=O)c1ccc(/N=N/c2ccc(O)c(C(=O)N3CCOCC3)c2)cc1 [Compound 5l] ?
Data returned: 10.2

Data request: Quick one: IC50 for Cc1ccnc(NS(=O)(=O)c2ccc(/N=N/c3ccc(O)c(C(=O)N4CCOCC4)c3)cc2)n1 [Compound 5o] ?
Data returned: 12.9

Data request: // IC50 lookup, key: O=C(NCc1ccccc1)c1cc(/N=N/c2ccc(S(=O)(=O)Nc3ncccn3)cc2)ccc1O [Compound 5g]
Data returned: 10.5

Data request: Entry O=C(c1cc(/N=N/c2ccc(S(=O)(=O)Nc3nccs3)cc2)ccc1O)N1CCCCC1 [Compound 5i] : reported IC50 = ?
Data returned: 11.2

Data request: What does the data say about its IC50? Entry: CCCCNC(=O)c1cc(/N=N/c2ccc(S(=O)(=O)Nc3ncccn3)cc2)ccc1O [Compound 5c]
Data returned: 11.2

Data request: Sample NS(=O)(=O)c1ccc(/N=N/c2ccc(O)c(C(=O)N3CCCCC3)c2)cc1 [Compound 5h] — what was its IC50?
Data returned: 8.2

Data request: Please report the recorded IC50 for CCCCNC(=O)c1cc(/N=N/c2ccc(S(=O)(=O)Nc3nccs3)cc2)ccc1O [Compound 5b] .
Data returned: 12.2

Data request: Look at this molecule and give its reported IC50. Cc1ccnc(NS(=O)(=O)c2ccc(/N=N/c3ccc(O)c(C(=O)N4CCCCC4)c3)cc2)n1 [Compound 5k]
Data returned: 10.3

Data request: Quick one: IC50 for O=C(c1cc(/N=N/c2ccc(S(=O)(=O)Nc3ncccn3)cc2)ccc1O)N1CCOCC1 [Compound 5n] ?
Data returned: 10.6

----------
For each record, write down the corresponding zone of inhibition at 1000 µg/mL.
Test system: Shigella dysenteriae (RCMB 0100542)
assayOverview: Inhibition zone, agar cup diffusion
Assay type: cell-based
testParameters: RCMB0100542, 24 h, read-out: inhibition zones (IZ) S. dysenteriae
Numeric answer only, unit mm assumed.

Data request: Give the measured zone of inhibition at 1000 µg/mL of `CCCCNC(=O)c1cc(/N=N/c2ccc(S(=O)(=O)Nc3nccc(C)n3)cc2)ccc1O` .
Data returned: 26

Data request: Would you mind telling me what zone of inhibition at 1000 µg/mL value was observed for `NS(=O)(=O)c1ccc(/N=N/c2ccc(O)c(C(=O)N3CCOCC3)c2)cc1` ?
Data returned: 26

Data request: Requested read-out: zone of inhibition at 1000 µg/mL. Entry: `O=C(c1cc(/N=N/c2ccc(S(=O)(=O)Nc3nccs3)cc2)ccc1O)N1CCCCC1`
Data returned: 22

Data request: What zone of inhibition at 1000 µg/mL value was documented for this compound, C[C@H]1COc2c(N3CCN(C)CC3)c(F)cc3c(=O)c(C(=O)O)cn1c23 [Levofloxacin, levofloxacin, reference compound] ?
Data returned: 20
